Recorded values, source the supplement of paper PMC7724964.

tested-target: TLN2 312-417 IRS (domain begin residue: 312, domain end residue: 417), Q9Y4G6
Sequence (Q9Y4G6 whole entry): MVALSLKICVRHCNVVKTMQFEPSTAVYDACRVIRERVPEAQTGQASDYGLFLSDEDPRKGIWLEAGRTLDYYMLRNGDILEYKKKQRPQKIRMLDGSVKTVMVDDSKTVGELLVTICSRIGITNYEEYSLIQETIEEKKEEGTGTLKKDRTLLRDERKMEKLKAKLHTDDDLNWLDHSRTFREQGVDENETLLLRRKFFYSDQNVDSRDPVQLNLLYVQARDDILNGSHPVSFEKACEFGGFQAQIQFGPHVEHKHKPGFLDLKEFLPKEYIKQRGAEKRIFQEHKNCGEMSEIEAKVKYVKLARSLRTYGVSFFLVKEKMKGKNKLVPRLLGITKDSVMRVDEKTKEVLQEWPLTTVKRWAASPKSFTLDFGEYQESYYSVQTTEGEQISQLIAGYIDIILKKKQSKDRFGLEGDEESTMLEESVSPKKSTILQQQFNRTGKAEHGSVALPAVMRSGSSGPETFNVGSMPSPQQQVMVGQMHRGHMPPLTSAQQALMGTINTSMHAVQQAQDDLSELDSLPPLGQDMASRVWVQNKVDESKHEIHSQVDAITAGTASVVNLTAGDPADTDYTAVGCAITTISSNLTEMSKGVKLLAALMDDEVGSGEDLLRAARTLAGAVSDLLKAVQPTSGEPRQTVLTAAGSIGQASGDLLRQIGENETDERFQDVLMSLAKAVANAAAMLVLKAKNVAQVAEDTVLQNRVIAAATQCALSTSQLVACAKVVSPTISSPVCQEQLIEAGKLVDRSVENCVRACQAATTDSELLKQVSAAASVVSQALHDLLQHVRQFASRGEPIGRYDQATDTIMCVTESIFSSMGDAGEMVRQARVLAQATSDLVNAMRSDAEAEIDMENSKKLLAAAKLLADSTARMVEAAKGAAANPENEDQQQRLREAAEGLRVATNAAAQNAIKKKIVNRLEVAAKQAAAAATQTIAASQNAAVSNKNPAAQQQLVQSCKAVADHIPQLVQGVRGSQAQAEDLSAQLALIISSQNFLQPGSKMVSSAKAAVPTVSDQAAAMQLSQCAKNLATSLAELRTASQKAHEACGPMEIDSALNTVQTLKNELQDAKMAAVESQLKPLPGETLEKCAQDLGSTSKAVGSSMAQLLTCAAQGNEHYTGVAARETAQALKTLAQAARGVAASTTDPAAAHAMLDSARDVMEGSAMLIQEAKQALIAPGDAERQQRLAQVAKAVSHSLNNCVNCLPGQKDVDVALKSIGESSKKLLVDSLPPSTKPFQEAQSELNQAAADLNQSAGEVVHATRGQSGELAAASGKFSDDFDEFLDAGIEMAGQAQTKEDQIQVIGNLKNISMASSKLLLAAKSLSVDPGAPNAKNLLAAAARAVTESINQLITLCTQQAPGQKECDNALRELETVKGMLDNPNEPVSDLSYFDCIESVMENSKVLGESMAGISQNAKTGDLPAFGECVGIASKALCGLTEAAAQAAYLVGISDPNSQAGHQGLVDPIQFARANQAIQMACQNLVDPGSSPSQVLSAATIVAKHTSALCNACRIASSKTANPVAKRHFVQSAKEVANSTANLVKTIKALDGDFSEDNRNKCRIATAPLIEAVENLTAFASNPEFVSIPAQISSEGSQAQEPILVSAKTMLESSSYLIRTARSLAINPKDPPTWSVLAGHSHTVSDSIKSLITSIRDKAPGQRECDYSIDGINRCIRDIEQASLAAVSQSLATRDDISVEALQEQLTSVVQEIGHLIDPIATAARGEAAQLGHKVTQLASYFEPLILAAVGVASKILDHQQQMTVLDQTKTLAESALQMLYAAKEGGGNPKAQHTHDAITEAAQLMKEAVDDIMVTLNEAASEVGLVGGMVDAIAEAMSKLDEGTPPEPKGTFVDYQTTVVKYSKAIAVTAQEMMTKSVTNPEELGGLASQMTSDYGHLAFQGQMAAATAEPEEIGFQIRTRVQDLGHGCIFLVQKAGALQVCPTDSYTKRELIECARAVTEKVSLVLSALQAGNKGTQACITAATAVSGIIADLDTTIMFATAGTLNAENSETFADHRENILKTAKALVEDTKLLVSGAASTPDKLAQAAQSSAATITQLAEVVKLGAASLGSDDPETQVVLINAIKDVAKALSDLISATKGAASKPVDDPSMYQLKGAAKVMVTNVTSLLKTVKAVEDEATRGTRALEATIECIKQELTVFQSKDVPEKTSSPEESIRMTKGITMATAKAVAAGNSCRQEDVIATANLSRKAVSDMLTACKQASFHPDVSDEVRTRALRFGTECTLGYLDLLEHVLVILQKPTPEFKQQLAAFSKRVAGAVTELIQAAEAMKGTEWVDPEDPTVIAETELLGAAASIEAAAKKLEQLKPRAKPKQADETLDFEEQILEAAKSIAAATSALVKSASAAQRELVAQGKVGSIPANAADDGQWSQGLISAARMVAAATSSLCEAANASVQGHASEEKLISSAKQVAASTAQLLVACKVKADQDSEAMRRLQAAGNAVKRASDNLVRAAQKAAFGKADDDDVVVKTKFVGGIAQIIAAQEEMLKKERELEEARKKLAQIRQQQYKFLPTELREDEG
assay-summary: phage ELISA signal ratio (GST-PRM binding over GST background); higher = stronger binding of peptide-phage to the PRM
measured-endpoint: phage ELISA signal ratio
Keep the answer to the number alone.

[in] Given the entry `MEWVEVYTKTDYAFPP` , report its measured phage ELISA signal ratio.
[out] 17.8
